experiment.notes: Volume of distribution in Sprague-Dawley rat at 1 mg/kg, iv or 3 mg/kg, po by LC-ESI-MS/MS analysis
Assay type: ADME, organism-based
measurement.parameters: in vivo
measure: Vd (L/kg)
Value expressed in L/kg; do not type the unit.

mol: CC[C@@H]1C[C@H](N(Cc2cc(C(F)(F)F)cc(C(F)(F)F)c2)c2ncc(N3CCOCC3)cn2)C[C@H](CC)N1C(=O)O[C@H]1CC[C@H](C(=O)O)CC1
output.unit: L/kg
Vd: 0.67

mol: CC[C@@H]1C[C@H](N(Cc2cc(C(F)(F)F)cc(C(F)(F)F)c2)c2ncc(N3CCOCC3)cn2)C[C@H](CC)N1C(=O)OC(C)C
output.unit: L/kg
Vd: 2.35

// CC[C@@H]1C[C@H](N(Cc2cc(C(F)(F)F)cc(C(F)(F)F)c2)c2ncc(-c3cnn(C)c3)cn2)C[C@H](CC)N1C(=O)O[C@H]1CC[C@H](C(=O)O)CC1 : Vd value = 0.57

// CC[C@@H]1C[C@H](N(Cc2cc(C(F)(F)F)cc(C(F)(F)F)c2)c2ncc(N3CCOCC3)cn2)C[C@H](Cc2ccccc2)N1C(=O)OC(C)(C)C : Vd value = 0.7

###

experimental.system: Cytochrome P450 2C9 (Homo sapiens)
Sequence (P11712 whole entry): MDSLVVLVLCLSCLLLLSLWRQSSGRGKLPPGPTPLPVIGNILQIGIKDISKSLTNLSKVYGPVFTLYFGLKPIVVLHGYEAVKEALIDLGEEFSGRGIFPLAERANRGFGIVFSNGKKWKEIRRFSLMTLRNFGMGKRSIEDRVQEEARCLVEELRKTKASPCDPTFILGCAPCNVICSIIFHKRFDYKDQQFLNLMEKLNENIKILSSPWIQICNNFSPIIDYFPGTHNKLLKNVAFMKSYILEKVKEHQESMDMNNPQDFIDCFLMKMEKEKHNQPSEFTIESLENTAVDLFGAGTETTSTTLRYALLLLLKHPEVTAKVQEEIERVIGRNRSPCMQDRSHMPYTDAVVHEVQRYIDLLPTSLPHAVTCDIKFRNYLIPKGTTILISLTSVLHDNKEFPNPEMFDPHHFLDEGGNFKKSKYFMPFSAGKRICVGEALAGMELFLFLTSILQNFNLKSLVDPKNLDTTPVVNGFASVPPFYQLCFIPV
experiment.notes: Inhibition of CYP2C9 (unknown origin)
Format: ADME
Let's look at some compounds and their measured IC50.
Value expressed in µM; do not type the unit.

mol: CC[C@@H]1C[C@H](N(Cc2cc(C(F)(F)F)cc(C(F)(F)F)c2)c2ncc(N3CCOCC3)cn2)C[C@H](CC)N1C(=O)OC(C)C
experimental.system: Cytochrome P450 2C9 (Homo sapiens)
measure: IC50
output.unit: µM
measurement: 6.6

Okay, next one:
// CC[C@@H]1C[C@H](N(Cc2cc(C(F)(F)F)cc(C(F)(F)F)c2)c2ncc(-c3cnn(C)c3)cn2)C[C@H](CC)N1C(=O)O[C@H]1CC[C@H](C(=O)O)CC1 : IC50 value = 19

###

Let's look at some compounds and their measured pIC50.
experimental.system: Cholesteryl ester transfer protein (Homo sapiens, UniProt P11597)
Sequence (P11597 whole entry): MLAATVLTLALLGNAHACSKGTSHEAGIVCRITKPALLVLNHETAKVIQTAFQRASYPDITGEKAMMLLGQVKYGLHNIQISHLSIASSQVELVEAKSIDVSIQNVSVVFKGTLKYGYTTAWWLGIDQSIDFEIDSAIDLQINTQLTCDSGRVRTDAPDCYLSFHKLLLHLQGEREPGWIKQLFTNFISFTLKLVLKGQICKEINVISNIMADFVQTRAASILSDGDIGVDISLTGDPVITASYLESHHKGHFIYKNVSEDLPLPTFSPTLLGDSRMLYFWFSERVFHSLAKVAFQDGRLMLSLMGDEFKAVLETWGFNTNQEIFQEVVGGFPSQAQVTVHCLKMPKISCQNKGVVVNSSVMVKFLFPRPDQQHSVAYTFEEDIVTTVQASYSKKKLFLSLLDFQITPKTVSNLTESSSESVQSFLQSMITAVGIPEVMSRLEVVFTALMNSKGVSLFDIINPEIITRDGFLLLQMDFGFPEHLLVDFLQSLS
experiment.notes: Inhibition of CETP in human plasma measured every 30 mins for 120 mins by fluorescence method
Scale: pIC50 equals -log10([C]), with [C] in mol/L.

compound: CC[C@@H]1C[C@H](N(Cc2cc(C(F)(F)F)cc(C(F)(F)F)c2)c2ncc(N3CCOCC3)cn2)C[C@H](Cc2ccccc2)N1C(=O)OC(C)(C)C (racemic)
measure: pIC50
measurement: 6.79
--
compound: CC[C@@H]1C[C@H](N(Cc2cc(C(F)(F)F)cc(C(F)(F)F)c2)c2ncc(Br)cn2)C[C@H](Cc2ccccc2)N1C(=O)OC(C)(C)C
measure: pIC50
measurement: 7.11

Okay, next one:
// CC[C@@H]1C[C@H](N(Cc2cc(C(F)(F)F)cc(C(F)(F)F)c2)c2ncc(OC)cn2)C[C@H](Cc2ccccc2)N1C(=O)OC(C)(C)C (racemic) : pIC50 value = 7.15

###

experiment.notes: 1-Octanol-phosphate buffered saline partition coefficient, log D of compound at […] by tandem mass spectrometry method
Format: physicochemical
measure: logD

# example entries with known answers
mol: CCOC(=O)N1c2ccc(C(F)(F)F)cc2[C@@H](N(Cc2cc(C(F)(F)F)cc(C(F)(F)F)c2)C(=O)OC)C[C@H]1CC
measurement: > 4
--
mol: CCC(CC)CC1(C(=O)Nc2ccccc2SC(=O)C(C)C)CCCCC1
measurement: > 6

Okay, next one:
// COc1cc(F)c(C(C)C)cc1-c1ccc(C(F)(F)F)cc1CN1C(=O)O[C@H](c2cc(C(F)(F)F)cc(C(F)(F)F)c2)[C@@H]1C : logD value = > 5.9

This collection of values is drawn from ChEMBL document CHEMBL4028876.
